Values from ChEMBL document CHEMBL1152053

Collected log10(Ki) values appear next to each entry.
Experimental System: Human immunodeficiency virus type 1 protease (Human immunodeficiency virus 1)
Experiment Description: Compound was evaluated for the inhibition of recombinant HIV-1 protease at 37 degrees C and pH of 6.
Reported Property: log10(Ki) (log10 of the value in µM)

Compound	Reported Property	Assay Result
O=C1C[C@](O)(Cc2ccccc2)C(O)[C@@](O)(Cc2ccccc2)C1	log10(Ki)	1.00
[O-][S+]1C[C@](CO)(Cc2ccccc2)C(O)[C@@](CO)(Cc2ccccc2)C1 (stereo in doubt; (+)7)	log10(Ki)	0.85
OC[C@]1(Cc2ccccc2)C[C@H](O)C[C@](CO)(Cc2ccccc2)[C@H]1O	log10(Ki)	1.68
OC[C@]1(Cc2ccccc2)C[C@H](O)C[C@](CO)(Cc2ccccc2)[C@@H]1O	log10(Ki)	2.92
O=C1C[C@](CO)(Cc2ccccc2)C(O)[C@@](CO)(Cc2ccccc2)C1	log10(Ki)	1.79
[O-][S+]1C[C@](CO)(Cc2ccccc2)C(O)[C@@](CO)(Cc2ccccc2)C1 (stereo in doubt; (-)7)	log10(Ki)	1.28
